Recorded values, source PubChem BioAssay (NCI).

Test system: OVCAR-5 ovarian
Assay: NCI-60 one-dose screen, 48 h (100 = growth as untreated, 0 = no growth, -100 = all killed)
Settings: 10 µM unless noted
This is part of a sample that, as a whole, favours compounds with a hit. Of some 83,000 tested, about 20% had one in any assay.
Give growth for every item shown.
Could you give me the number in %? Just the number is fine.

// query Return reported growth; argument: Nc1nc(N)c2nc(CNc3ccc(C(=O)CC(CCC(=O)O)C(=O)O)cc3)cnc2n1 (stereo not drawn)
// result 53.1

// query Value lookup for growth; key = "O=C(Nc1ccc(F)cc1)c1cc([N+](=O)[O-])ccc1O"
// result 86.1

// query growth lookup needed for COc1cc(/C=C2\CCCC3=C2N=C2SC(C)=NN2C3c2cc(OC)c(OC)c(OC)c2)cc(OC)c1OC (stereo not drawn) , thanks.
// result 67.3

====

Tested on: HT29 colon
Experiment: NCI-60 one-dose screen, 48 h (100 = growth as untreated, 0 = no growth, -100 = all killed)
Conditions: 10 µM unless noted
About 83,000 compounds went through this panel and 20% of them were active in at least one assay; those are over-represented in the sample as a whole.
So basically every entry gets a class from its growth, ranges being LOW = under 10%, MID = from 10% up to 80%, HIGH = 80% and over

// query Into which category would you place CC(=O)Nc1ccc(S(=O)(=O)NC(CCC(=O)Nc2ccc(Cl)cc2)C(=O)O)cc1 (stereo not drawn) ?
// result HIGH

// query Input "COc1cccc(NC(=O)Cn2cc3c(=O)oc4ccccc4c3n2)c1" ; output its category
// result HIGH

// query Which band does "Nc1cc2c(cc1N)-c1cc(N)c(N)cc1C2" fall in?
// result HIGH

// query Form: Item = "O=S(=O)(NCCCNc1cc(-c2cn(-c3ccccc3)nc2-c2cccc(O)c2)ccn1)c1cccc(F)c1" ; Class = ?
// result LOW

// query # classify by growth band: "COc1cccc(/C=C2\SC(N3CCN(c4ccccn4)CC3)=NC2=O)c1"
// result HIGH

// query For "COc1cccc(/C=C/c2c(C(=O)O)cccc2[N+](=O)[O-])c1OC" , which growth bin applies?
// result HIGH

// query Kindly state the category for this molecule: "O=C(CCCn1c2c(sc3ccccc32)c(=O)n2nnc(-c3ccccc3)c12)NCCc1cnc[nH]1"
// result LOW

// query Category of C#CCN1C(=O)/C(=c2\sc3n(c2=O)C2C(NN=3)N(CC)C(=O)N2CC)c2ccccc21 (stereo not drawn) , please.
// result LOW

// query Given "Cc1nc(Nc2cccnc2)sc1C(=O)/C=C/c1ccc(Cl)cc1" , name the class its growth places it in.
// result LOW

// query # bin lookup: classify "COc1ccc(-c2cn[nH]c2-c2cc(OC)c3c(c2)OCO3)cc1" by its growth
// result LOW

// query Entry "O=S(=O)(NCCNc1cc(-c2cn(-c3ccccc3)nc2-c2ccccc2)ccn1)c1cccc2ccccc12" belongs to which category?
// result MID

// query Band for the recorded growth of "COc1cc2c(cc1OCCCCn1c(-c3cc(=O)c4ccccc4o3)nc3ccccc31)N=C[C@@H]1CCCN1C2=O" ?
// result HIGH

// query Exercise: read the entry CCN1C(=O)N(CC)C2Nn3c(s/c(=C\c4cccc(F)c4)c3=O)=NC21 (stereo not drawn) and state which class it falls under.
// result MID

// query Form: Item = "COc1cc(NCCN=C(N)NC(N)=NC(C)C)c2ncccc2c1" ; Class = ?
// result MID

// query Into which category would you place CCN1C(=S)N(CC)C2Nn3c(s/c(=C4\C(=O)N(C)c5ccccc54)c3=O)=NC21 (stereo not drawn) ?
// result MID

// query // bin(item) where item = "COc1cccc(-n2cc(-c3nc(Cl)c4ccccc4n3)nn2)c1"
// result MID

// query Category of "NC(=O)c1c(NC(=O)c2ccc3c(c2)OCO3)sc2c1CCC(=O)C2" :
// result LOW

// query Note: place this molecule into its band. Item: "CC(=O)/C=C/c1cc2cc(Cl)ccc2[nH]c1=O"
// result MID

// query Assign a bin to COc1ccc(C2=NN(c3ccc(S(N)(=O)=O)cc3)C(c3cn(-c4ccccc4)nc3-c3ccc(Cl)cc3)C2)cc1 (stereo not drawn)
// result HIGH

// query # bin lookup: classify "COC(=O)CCCCN=Cc1c(O)c(O)c(C(C)C)c2cc(C)c(-c3c(C)cc4c(C(C)C)c(O)c(O)c(C=NCCCCC(=O)OC)c4c3O)c(O)c12" by its growth
// result LOW

// query Which growth category applies to "COc1ccc(/C=C/C(=O)c2ccc(NC(=O)CN3CCN(c4cc5c(cc4F)c(=O)c(C(=O)O)cn5C4CC4)CC3)cc2)cc1" here?
// result HIGH

// query Assign a category based on measured growth for "CC(C)C[C@H](NC(=O)[C@@H](Cc1ccccc1)n1ccc(Nc2ccccc2)cc1=O)B(O)O" and give only the class name.
// result LOW

// query Consider NC(CC(N)C(=O)O)C(=O)O (stereo not drawn) . To which growth class does it belong?
// result HIGH

// query Form field 'band' for "O=C1CCCCN1CCCCC#Cc1ccccc1C#Cc1ccccn1"
// result HIGH

// query Exercise: read the entry "Cc1ccc(Cn2c(-c3nonc3N)nc3ccccc32)cc1" and state which class it falls under.
// result MID

// query Could you place "CCSc1nnc(NC(=O)COc2ccc(Cl)cc2C)s1" in its proper category? Many thanks.
// result HIGH

// query Which of the defined bands does the recorded growth of CCN(CC)CCCC(C)N=c1cc(Nc2cc(=NC(C)CCCN(CC)CC)c3cc(OC)ccc3o2)oc2ccc(OC)cc12 (stereo not drawn) sit within?
// result LOW

====

Test system: MDA-MB-231 breast
Experiment: NCI-60 one-dose screen, 48 h (100 = growth as untreated, 0 = no growth, -100 = all killed)
Conditions: 10 µM unless noted
Compounds without any hit were thinned out: in the full panel of roughly 83,000, 20% have a hit.
Outcome Measure: growth (%)
Report as a plain number; the unit % is understood.

// query Item under review: "CCn1c(=O)c2c(=O)c3c4c(oc3oc2c2ccccc21)C(=O)c1ccccc1C4=O" . Reported growth?
// result 6.33

// query Entry under review: COc1cc(/C=C2\CCCC3=C2NC(C)=NC3c2cc(OC)c(OC)c(OC)c2)cc(OC)c1OC (stereo not given) . Reported growth?
// result 13

// query Requested read-out: growth. Entry: "Cn1c(-c2nonc2NC(=O)c2ccc(F)cc2)nc2ccccc21"
// result 129

// query Reported growth, compound "Cc1ccc(S(=O)(=O)OCC(=O)Nc2ccc(C(=O)O)c(O)c2)cc1" : ____
// result 97.2

// query Param item = "COc1cc(Cn2c(SCC(=O)Nc3ccc(Cl)cc3)nc3ccccc3c2=O)cc(OC)c1OC" ; retrieve measured growth.
// result 49.3

// query Consider the compound "COc1ccc(NC(=O)c2cc3ccccc3nc2Nc2cc(OC)c(OC)c(OC)c2)cc1" and give its measured growth.
// result 54.1

// query Record request: growth value, item "O=C(CCCn1c(=O)c2sc3ccccc3c2n2nnc(-c3ccccc3)c12)NCCc1cnc[nH]1"
// result -70.8

// query Which growth value belongs to "COc1cc2c3c(c(=O)oc2cc1OS(=O)(=O)c1ccc(C(F)(F)F)cc1)CCCCC3" ?
// result 68.6

// query Entry "CC(C)C[C@H](NC(=O)Cn1ccc(NCc2ccccc2)cc1=O)B(O)O" : reported growth = ?
// result 28

// query Reported growth, compound "Cn1c(C(N)=O)cc2c1-c1nc(NC3CCCCC3)ncc1CCC2" : ____
// result 78.4

// query Would you kindly share the measured growth for "O=C(Nc1ccc(Cl)cc1)c1cc(-c2ccc(F)cc2)c2sc(=O)[nH]c2n1" ?
// result 5.74

// query Look up growth for this compound: "O=C(CCl)NCCNc1nccc(Nc2ccc(S(=O)(=O)Nc3ccccn3)cc2)n1"
// result 2.46

// query Could you share which growth value was measured for COC1=CC(c2ccc[nH]2)=N/C1=C\c1[nH]c(C)c(C(=O)CCC(=O)Oc2ccc3c(c2)CCC2C3CC[C@]3(C)[C@@H](O)CC[C@@H]23)c1C (stereo not given in full) ?
// result -64.2

// query // returns reported growth for input "NC(=O)NNC(=O)c1ccccc1"
// result 113

// query Quick check: growth of "COc1ccc(/C=C/c2nc(N3CCOCC3)c3cc(F)c(F)cc3n2)cc1OC" ?
// result 55.4

// query Given the compound "Nc1c(C(=O)Nc2ccccc2)sc2nc3c(cc12)CN(Cc1ccccc1)CC3" , what is its reported growth?
// result 42.6

// query What does the data say about its growth? Entry: "CCn1cc(C(=O)O)c(=O)c2cc(F)c(N3CCN(S(=O)(=O)c4ccc(OC)c(OC)c4)CC3)cc21"
// result 103

// query Which growth value belongs to Cc1ccc2c(c1)C(C)Cc1c(ncnc1-n1cnc3ccccc31)N2C (stereo not given) ?
// result 25.1

// query Which growth is reported for this compound? "O=C(/C=C/CN1CCCCC1)Nc1cc2c(Nc3ccc(F)c(Cl)c3F)ncnc2cc1OCCOC(F)F"
// result -4.23

// query Endpoint output: growth of "C=CCN=C1NC(=O)/C(=C/c2cc(C(C)(C)C)c(O)c(C(C)(C)C)c2)S1" . Value?
// result 86.8

// query Find the recorded growth belonging to "CCN(CC)S(=O)(=O)c1ccc2[nH]c(=O)cc(C(=O)Nc3ccc(OC)cc3OC)c2c1" and report it.
// result 98.3

// query Which measured growth value corresponds to "O=S(=O)(NCCCNc1cc(-c2cn(-c3ccccc3)nc2-c2cccc(O)c2)ccn1)c1ccc(Br)cc1" ?
// result -20.7

// query Recorded growth of "O=C(Nc1ccc(F)cc1)c1cc([N+](=O)[O-])ccc1O" , please.
// result 65.9

// query Find the recorded growth belonging to "Cc1ccc2nc(-c3c(N)n[nH]c3CCCO)[nH]c(=O)c2c1" and report it.
// result 99.5

// query Name the recorded growth for "CCCCC[C@@H]1Cc2cc(O)c(C(=O)O)c3c2[C@H](C[C@@]2(CCCO2)O3)O1" .
// result 101

// query Give its growth value. Item: "CN(C)c1ncc(-c2ccc(C(F)(F)F)cc2)c(NC2CCCCCC2)n1"
// result 83.4

// query Can you share its growth? I mean this compound: "Cc1oc2nc[nH]c(=O)c2c1C(=O)/C=C/c1ccc(Cl)cc1"
// result 22.3

// query Give the measured growth of "Cc1ccccc1C(=O)c1ccccc1C(=O)O" .
// result 115

// query Requested read-out: growth. Entry: "O=C(NCCCN1CCN(CCCNC(=O)C2CCCCC2)CC1)C1CCCCC1"
// result 108

// query # query: growth of entry "O=Nc1c(-c2c(O)[nH]c3ccc([N+](=O)[O-])cc23)[nH]c2ccc(O)cc12"
// result 25.4
